Taken from patent US11690810B2.

Reported MIC90 values for a set of compounds
Test system: S. aureus SA-APH2″-AAC6′ (APH2), resistant to gentamicin
Test: MIC and checkerboard (FIC) assay
Conditions: Staphylococcus aureus

Compound | Assay target | Unit symbol | Bound type | MIC90
C=C(C)C(CC=C(C)C)Cc1c(O)cc(OC)c(C(=O)/C=C/c2ccc(O)cc2O)c1O (stereo not drawn) [Kuraridin] | S. aureus SA-APH2″-AAC6′ (APH2), resistant to gentamicin | µg/mL | = | 8
O=C(O)c1cc(O)c(O)c(O)c1 [Gallic acid, 3,4,5-trihydroxybenzoic acid] | S. aureus SA-APH2″-AAC6′ (APH2), resistant to gentamicin | µg/mL | = | 512
O=c1cc(-c2ccccc2)oc2cc(O)c(O)c(O)c12 [Baicalein, 5,6,7-trihydroxyflavone] | S. aureus SA-APH2″-AAC6′ (APH2), resistant to gentamicin | µg/mL | = | 128
COc1ccc2cc3[n+](cc2c1OC)CCc1cc2c(cc1-3)OCO2 [Berberine] | S. aureus SA-APH2″-AAC6′ (APH2), resistant to gentamicin | µg/mL | = | 256
O=C(O[C@@H]1Cc2c(O)cc(O)cc2O[C@@H]1c1ccc(O)c(O)c1)c1cc(O)c(O)c(O)c1 [ECG, epicatechin gallate] | S. aureus SA-APH2″-AAC6′ (APH2), resistant to gentamicin | µg/mL | = | 8
Cc1coc2c1C(=O)C(=O)c1c-2ccc2c(C)cccc12 [Tanshinone, tanshinone] | S. aureus SA-APH2″-AAC6′ (APH2), resistant to gentamicin | µg/mL | > | 128

---

Reported MIC99 values for a set of molecules
Tested on: S. aureus SA-RN4220-pUL5054 (RN4220)
Assay: MIC and checkerboard (FIC) assay
Settings: Staphylococcus aureus, read-out: MIC 99.9

Molecule | MIC99
O=c1cc(-c2ccccc2)oc2cc(O)c(O)c(O)c12 [Baicalein, 5,6,7-trihydroxyflavone] | > 512 µg/mL
COc1ccc2cc3[n+](cc2c1OC)CCc1cc2c(cc1-3)OCO2 | > 512 µg/mL
O=C(O[C@@H]1Cc2c(O)cc(O)cc2O[C@@H]1c1ccc(O)c(O)c1)c1cc(O)c(O)c(O)c1 [ECG, epicatechin gallate] | > 512 µg/mL
O=C(O)c1cc(O)c(O)c(O)c1 [Gallic acid, 3,4,5-trihydroxybenzoic acid] | > 512 µg/mL
Cc1coc2c1C(=O)C(=O)c1c-2ccc2c(C)cccc12 | > 128 µg/mL
C=C(C)C(CC=C(C)C)Cc1c(O)cc(OC)c(C(=O)/C=C/c2ccc(O)cc2O)c1O (stereo not drawn) | 8 µg/mL

---

Test system: S. aureus SA-ANT4′ (ANT4), resistant to fusidic acid
Experiment: MIC and checkerboard (FIC) assay
Conditions: Staphylococcus aureus

Compound | Unit symbol | Bound type | MIC90
COc1ccc2cc3[n+](cc2c1OC)CCc1cc2c(cc1-3)OCO2 | µg/mL | = | 256
O=c1cc(-c2ccccc2)oc2cc(O)c(O)c(O)c12 [Baicalein, 5,6,7-trihydroxyflavone] | µg/mL | = | 128
O=C(O[C@@H]1Cc2c(O)cc(O)cc2O[C@@H]1c1ccc(O)c(O)c1)c1cc(O)c(O)c(O)c1 [ECG, epicatechin gallate] | µg/mL | = | 8
C=C(C)C(CC=C(C)C)Cc1c(O)cc(OC)c(C(=O)/C=C/c2ccc(O)cc2O)c1O (stereo not drawn) | µg/mL | = | 4
Cc1coc2c1C(=O)C(=O)c1c-2ccc2c(C)cccc12 | µg/mL | > | 128
O=C(O)c1cc(O)c(O)c(O)c1 [Gallic acid, 3,4,5-trihydroxybenzoic acid] | µg/mL | = | 512
